Where do these numbers come from? They come from patent US20070179154A1.

Parameter: melting point. Scope: all listed entries.

Examples with their reported melting point follow.
LINE NOTATION	melting point
O=C(O)/C=C/c1cccc(-c2c(CC(=O)Nc3ccc(F)cc3C(F)(F)F)c(=O)oc3cc(Cl)ccc23)c1	254 to 257 °C
Cc1cc2c(-c3ccc(F)c(/C=C/C(=O)O)c3)c(CC(=O)Nc3ccc(Cl)cc3C(F)(F)F)c(=O)oc2cc1Cl	277 to 279 °C
Cc1cc2c(-c3cccc(-c4nsc(=O)[nH]4)c3)c(CC(=O)Nc3ccc(F)cc3C(F)(F)F)c(=O)oc2cc1Cl	269 to 271 °C (dec.)
Cc1cc2c(-c3cccc(/C=C/C(=O)O)c3)c(CC(=O)Nc3ccccc3C(F)(F)F)c(=O)oc2cc1Cl	252 to 254 °C
CCOC(=O)/C=C/c1cc(-c2c(CC(=O)Nc3ccc(Cl)cc3C(F)(F)F)c(=O)oc3cc(Cl)c(C)cc23)ccc1F	160 to 162 °C
Cc1cc2c(-c3cccc(C(=O)NC(C)(C)C)c3)c(CC(=O)Nc3ccc(Cl)cc3C(F)(F)F)c(=O)oc2cc1Cl	206 to 208 °C

Lab note: next compound to report on.
Look up melting point for this compound: CCOC(=O)/C=C/c1cccc(-c2c(CC(=O)Nc3ccc(F)cc3C(F)(F)F)c(=O)oc3cc(Cl)c(F)cc23)c1
151 to 153 °C
